# method notes: The compound was evaluated for its toxicity against KB cells
# Assay type: functional
# condition description: Homo sapiens, read-out: ED50 (the source's name)
measure name: pEC50
// returns pEC50 (minus log10 of molar concentration), number only

INSERT INTO assay_data (compound, reported_result) VALUES
  ('CC(C(=O)NCCCNCCCCN)[C@H]1CCC2C3CC=C4C[C@@H](O)CC[C@]4(C)C3CC[C@@]21C (stereo not given in full)', 5.48),
  ('CC(=O)O[C@H]1CC[C@@]2(C)C(=CCC3C2CC[C@@]2(C)C3CC[C@@H]2C(C)C(=O)NCCCN(CCCCNC(=O)OC(C)(C)C)C(=O)OC(C)(C)C)C1 (stereo not given in full)', 3.95);

The recorded pEC50 for entry CC(C(=O)NCCCNCCCCNCCCN)[C@H]1CCC2C3CC=C4C[C@@H](O)CC[C@]4(C)C3CC[C@@]21C (stereo not given in full) equals 4.82

---

# System: Leishmania donovani
# method notes: The compound was evaluated for its inhibitory activity against Leishmania donovani
# Type: functional
# condition description: read-out: ED50 (the source's name)
pEC50: −log10 of the molar value.
If the reported pEC50 equals or exceeds 5, assign met. If not, assign not met.

INSERT INTO assay_data (compound, answer_label) VALUES
  ('CC(C(=O)NCCCNCCCCN)[C@H]1CCC2C3CC=C4C[C@@H](O)CC[C@]4(C)C3CC[C@@]21C (stereo partly drawn)', 'not met');

Exercise: Kindly determine if pEC50 recorded for CC(=O)O[C@H]1CC[C@@]2(C)C(=CCC3C2CC[C@@]2(C)C3CC[C@@H]2C(C)C(=O)NCCCN(CCCCNC(=O)OC(C)(C)C)C(=O)OC(C)(C)C)C1 (stereo partly drawn) is above or exactly 5.
Key: not met

Exercise: Kindly determine if pEC50 recorded for CC(C(=O)NCCCNCCCCNCCCN)[C@H]1CCC2C3CC=C4C[C@@H](O)CC[C@]4(C)C3CC[C@@]21C (stereo partly drawn) is above or exactly 5.
Key: met

---

# method notes: The compound was evaluated for its toxicity against KB cells
# Format: functional
# condition description: Homo sapiens, read-out: ED50 (the source's name)
Listed molecules paired with reported pEC50
Scale: negative log10 of molar concentration, which is what pEC50 denotes.

INSERT INTO assay_data (molecule, reported_result) VALUES
  ('CC(C(=O)NCCCN(CCCCNC(=O)OC(C)(C)C)C(=O)OC(C)(C)C)[C@H]1CCC2C3CC=C4C[C@@H](O)CC[C@]4(C)C3CC[C@@]21C (stereo partly drawn)', 4.19),
  ('CC(C(=O)NCCCN(CCCCN(CCCNC(=O)OC(C)(C)C)C(=O)OC(C)(C)C)C(=O)OC(C)(C)C)[C@H]1CCC2C3CC=C4C[C@@H](O)CC[C@]4(C)C3CC[C@@]21C (stereo partly drawn)', 4.57);

Now turn to the next molecule.
pEC50 measured on CC(=O)O[C@H]1CC[C@@]2(C)C(=CCC3C2CC[C@@]2(C)C3CC[C@@H]2C(C)C(=O)NCCCN(CCCCN(CCCNC(=O)OC(C)(C)C)C(=O)OC(C)(C)C)C(=O)OC(C)(C)C)C1 (stereo partly drawn) = 4.51

---

Here, each record is paired with measured pEC50 data.
# System: Leishmania donovani
# method notes: The compound was evaluated for its inhibitory activity against Leishmania donovani
# Assay type: functional
# condition description: read-out: ED50 (the source's name)
Just so you know, pEC50 here is -log10 of the concentration in molar units; reply with that number alone.

INSERT INTO results (compound, measure_name, reported_result) VALUES
  ('CC(C(=O)NCCCN(CCCCN(CCCNC(=O)OC(C)(C)C)C(=O)OC(C)(C)C)C(=O)OC(C)(C)C)[C@H]1CCC2C3CC=C4C[C@@H](O)CC[C@]4(C)C3CC[C@@]21C (stereo not given in full)', 'pEC50', 4.90),
  ('CC(=O)O[C@H]1CC[C@@]2(C)C(=CCC3C2CC[C@@]2(C)C3CC[C@@H]2C(C)C(=O)NCCCN(CCCCN(CCCNC(=O)OC(C)(C)C)C(=O)OC(C)(C)C)C(=O)OC(C)(C)C)C1 (stereo not given in full)', 'pEC50', 5.33),
  ('CC(C(=O)NCCCN(CCCCNC(=O)OC(C)(C)C)C(=O)OC(C)(C)C)[C@H]1CCC2C3CC=C4C[C@@H](O)CC[C@]4(C)C3CC[C@@]21C (stereo not given in full)', 'pEC50', 4.59),
  ('CC(C(=O)NCCCN(CCCCNC(=O)OC(C)(C)C)C(=O)OC(C)(C)C)[C@H]1CCC2C3CC=C4C[C@@H](OS(=O)(=O)O)CC[C@]4(C)C3CC[C@@]21C (stereo not given in full)', 'pEC50', 5.31);

Turning now to a further compound:
Record CC(C(=O)NCCCNCCCCN)[C@H]1CCC2C3CC=C4C[C@@H](OS(=O)(=O)O)CC[C@]4(C)C3CC[C@@]21C (stereo not given in full) , field pEC50: 4.40
